biological target: human OX2R (Homo sapiens, UniProt O43614); construct: expressed in transfected cells; host or cells: CHO (Chinese hamster ovary) cells grown under G418 selection; test: IPOne (IP-1 accumulation) assay in CHO cells expressing human OX2R; assay type: cell-based; settings: percent effect vs mean max effect of a reference compound at 1 uM (100% activity vs Orexin A), human OX2R
Sequence (O43614 whole entry): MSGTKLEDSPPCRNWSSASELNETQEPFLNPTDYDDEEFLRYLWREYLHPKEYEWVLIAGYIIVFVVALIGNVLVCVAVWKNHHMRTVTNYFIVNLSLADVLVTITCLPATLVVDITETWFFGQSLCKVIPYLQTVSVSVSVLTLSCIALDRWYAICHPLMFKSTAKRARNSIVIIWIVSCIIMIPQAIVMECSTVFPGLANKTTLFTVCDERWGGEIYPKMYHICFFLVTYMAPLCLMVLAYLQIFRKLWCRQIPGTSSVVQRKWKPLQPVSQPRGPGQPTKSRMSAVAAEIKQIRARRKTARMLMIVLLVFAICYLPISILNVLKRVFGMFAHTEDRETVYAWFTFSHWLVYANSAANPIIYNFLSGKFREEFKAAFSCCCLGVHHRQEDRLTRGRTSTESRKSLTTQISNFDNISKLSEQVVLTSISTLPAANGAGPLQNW
Exercise: for every item that follows, state its recorded % of maximum agonist effect (relative to Orexin A).
Please respond with the number in % and leave the unit unwritten.

Task: Look at this compound and give its reported % of maximum agonist effect (relative to Orexin A). CCN(C(=O)N[C@@H](CCC(F)(F)F)C(F)(F)F)C(c1cc(-c2cn3ccnc3c(OC)n2)cc(OC)n1)C(F)(F)F (stereo partly shown)
Result: 97.9

Task: Look at this compound and give its reported % of maximum agonist effect (relative to Orexin A). CCN(C(=O)NC(C1CC(F)(F)CC(C)(C)O1)C(F)(F)F)[C@@H](c1cc(-c2cn3cc(C)nc3c(OC)n2)c(OC)cn1)C(F)(F)F (stereo partly shown)
Result: 100.6

Task: Look at this compound and give its reported % of maximum agonist effect (relative to Orexin A). `CCN(C(=O)N[C@@H](CCS(C)(=O)=O)C(F)(F)F)[C@@H](c1cc(-c2cn3ccnc3c(OC)n2)c(OC)cn1)C(F)(F)F`
Result: 100.5

Task: Look at this compound and give its reported % of maximum agonist effect (relative to Orexin A). CCN(C(=O)N[C@@H](CCC(F)(F)F)C(F)(F)F)C(c1cc(-c2cn3ccnc3c(OC)n2)cnc1OC)C(F)(F)F (stereo partly shown)
Result: 100.5

Task: Look at this compound and give its reported % of maximum agonist effect (relative to Orexin A). `CC[C@H](CCC(F)(F)F)NC(=O)N(CC)C(C)(C)c1cccc(-c2ccc3nccn3c2)c1`
Result: 99.6

Task: Look at this compound and give its reported % of maximum agonist effect (relative to Orexin A). CCN(C(=O)NC(C#N)c1cccc(C(F)(F)F)c1)[C@H](C)c1cccc(-c2cn3ccnc3c(OC)n2)c1 (stereo partly shown)
Result: 99.1

Task: Look at this compound and give its reported % of maximum agonist effect (relative to Orexin A). `CCN(C(=O)N[C@@H](COC1CC1)C(F)(F)F)[C@@H](c1cc(-c2cn3cc(C)nc3c(OC)n2)c(OC)cn1)C(F)(F)F`
Result: 99.6

Task: Look at this compound and give its reported % of maximum agonist effect (relative to Orexin A). `CCN(C(=O)N[C@@H](CC1CC1)C(F)(F)F)[C@@H](c1cc(-c2cn3cc(C)nc3c(OC)n2)c(OC)cn1)C(F)(F)F`
Result: 99.3

Task: Look at this compound and give its reported % of maximum agonist effect (relative to Orexin A). CCN(C(=O)NC(CCC(F)(F)F)C1CCO1)[C@@H](c1cc(-c2cn3ccnc3c(OC)n2)c(OC)cn1)C(F)(F)F (stereo partly shown)
Result: 99.8

Task: Look at this compound and give its reported % of maximum agonist effect (relative to Orexin A). `CCN(C(=O)N[C@@H](CCCF)C(F)F)[C@@H](c1cc(-c2cn3ncnc3c(OC)n2)c(OC)cn1)C(F)(F)F`
Result: 101.4

Task: Look at this compound and give its reported % of maximum agonist effect (relative to Orexin A). CCN(C(=O)N[C@@H](CCC(F)(F)F)C(F)(F)F)C(c1cncc(-c2cn3ccnc3c(OC)n2)c1)C(F)(F)F (stereo partly shown)
Result: 99.4

Task: Look at this compound and give its reported % of maximum agonist effect (relative to Orexin A). `CC[C@H](CCC(F)(F)F)NC(=O)N(CC)[C@H](C)c1cc2c(c(-c3ccc4nccn4c3)c1)OCC2`
Result: 97.4

Task: Look at this compound and give its reported % of maximum agonist effect (relative to Orexin A). CCN(C(=O)NC(CC1CCCO1)C(F)(F)F)[C@@H](c1cc(-c2cn3cc(C)nc3c(OC)n2)c(OC)cn1)C(F)(F)F (stereo partly shown)
Result: 100.9

----------
target: human OX2R (Homo sapiens); construct: expressed in transfected cells; host or cells: CHO (Chinese hamster ovary) cells grown under G418 selection; experiment: IPOne (IP-1 accumulation) assay in CHO cells expressing human OX2R; assay type: cell-based; conditions: percent effect vs mean max effect of a reference compound at 1 uM (100% activity vs Orexin A), human OX2R
ENDPOINT_NAME: % of maximum agonist effect (relative to Orexin A) (%)
Please respond with the number in % and leave the unit unwritten.

Task: Look at this compound and give its reported % of maximum agonist effect (relative to Orexin A). CCNC(=O)N(CC)[C@H](C)c1cccc(-c2cc(OC)c3nccn3c2)c1 [Example 2-68]
Result: 83.3

Task: Look at this compound and give its reported % of maximum agonist effect (relative to Orexin A). CC[C@H](CCC(F)(F)F)NC(=O)N(CC)[C@H](C)c1cccc(-c2cc(COC)c3nccn3c2)c1 [Example 7-4]
Result: 97.8

Task: Look at this compound and give its reported % of maximum agonist effect (relative to Orexin A). CCN(C(=O)NC(CN(C)C)C(F)(F)F)[C@H](C)c1cccc(-c2cc(OC)n3nccc3c2)c1 (stereo partly shown) [Example 1-13]
Result: 80.7

Task: Look at this compound and give its reported % of maximum agonist effect (relative to Orexin A). CC[C@H](CCC(F)(F)F)NC(=O)N(CC)Cc1ccc(OC)c(-c2cc(OC)c3nccn3c2)c1 [Example 1-8]
Result: 96.5

Task: Look at this compound and give its reported % of maximum agonist effect (relative to Orexin A). CCc1nc(-c2cc([C@H](N(CC)C(=O)N[C@@H](CCC(F)(F)F)C(F)(F)F)C(F)(F)F)ncc2OC)cn2ccnc12 [Example 9-2]
Result: 100.5

Task: Look at this compound and give its reported % of maximum agonist effect (relative to Orexin A). CC[C@H](CCC(F)(F)F)NC(=O)N(CC)[C@H](C)c1cccc(-c2cc3c(c(OC)c2)NCC3)c1 [Example 25]
Result: 98.5

Task: Look at this compound and give its reported % of maximum agonist effect (relative to Orexin A). CCN(C(=O)NC(CCC1CC1)C(F)(F)F)[C@H](C)c1cccc(-c2cn3ccnc3c(OC)n2)c1 (stereo partly shown) [Example 3-6]
Result: 99.7

----------
biological target: human OX2R (Homo sapiens, UniProt O43614); assay: IPOne (IP-1 accumulation) assay in CHO cells expressing human OX2R; details: CHO cells expressing human OX2R; IP-One assay, 2 h incubation; four parameter logistic fit; read-out: OX2R Potency, EC50
ENDPOINT_NAME: EC50 (nM)
Please respond with the number in nM and leave the unit unwritten.

Task: EC50 of `CC[C@H](CCC(F)(F)F)NC(=O)N(CC)C(C)(C)c1cccc(-c2ccc3nccn3c2)c1` on human OX2R (Homo sapiens, UniProt O43614)?
Result: 126

Task: EC50 of CCN(C(=O)N[C@@H](CCC(F)(F)F)C(F)(F)F)C(C)c1ccnc(-c2cn3ccnc3c(OC)n2)c1 (stereo partly drawn) on human OX2R (Homo sapiens, UniProt O43614)?
Result: 11.7

Task: EC50 of CCN(C(=O)NC(C)C(C)(F)F)[C@@H](c1cc(-c2cn3ccnc3c(OC)n2)c(OC)cn1)C(F)(F)F (stereo partly drawn) on human OX2R (Homo sapiens, UniProt O43614)?
Result: 15.8

Task: EC50 of `CCN(C(=O)N[C@@H](CCC(F)(F)F)C(F)(F)F)[C@H](C)c1cc(-c2cc3ccnn3c(OC)n2)c(OC)cn1` on human OX2R (Homo sapiens, UniProt O43614)?
Result: 1

Task: EC50 of C=CC[C@H](NC(=O)N(CC)C(c1cc(-c2cn3ccnc3c(OC)n2)c(OC)cn1)C(F)(F)F)C(F)(F)F (mixture of isomers) on human OX2R (Homo sapiens, UniProt O43614)?
Result: 4.8

Task: EC50 of `CC[C@H](CCC(F)(F)F)NC(=O)N(CC)[C@H](C)c1cccc(-c2cc(C(F)F)c3nccn3c2)c1` on human OX2R (Homo sapiens, UniProt O43614)?
Result: 491

Task: EC50 of CCN(C(=O)N[C@@H](CCC(F)(F)F)C(F)(F)F)C(c1ccc(OC)c(-c2cn3ccnc3c(OC)n2)n1)C(F)(F)F (stereo partly drawn) on human OX2R (Homo sapiens, UniProt O43614)?
Result: 0.7

Task: EC50 of `CCN(C(=O)N[C@@H](CCC(F)F)C1CC1)[C@@H](c1cc(-c2cn3cc(C)nc3c(OC)n2)c(OC)cn1)C(F)(F)F` on human OX2R (Homo sapiens, UniProt O43614)?
Result: 8.5

Task: EC50 of `CC[C@H](CCC(F)(F)F)NC(=O)N(CC)[C@H](C)c1cc(-c2ccc3nccn3c2)c(OC)cc1F` on human OX2R (Homo sapiens, UniProt O43614)?
Result: 80.5
